# tgt: Recombinant neutrophil collagenase (Homo sapiens)
# Sequence (P22894 101-467): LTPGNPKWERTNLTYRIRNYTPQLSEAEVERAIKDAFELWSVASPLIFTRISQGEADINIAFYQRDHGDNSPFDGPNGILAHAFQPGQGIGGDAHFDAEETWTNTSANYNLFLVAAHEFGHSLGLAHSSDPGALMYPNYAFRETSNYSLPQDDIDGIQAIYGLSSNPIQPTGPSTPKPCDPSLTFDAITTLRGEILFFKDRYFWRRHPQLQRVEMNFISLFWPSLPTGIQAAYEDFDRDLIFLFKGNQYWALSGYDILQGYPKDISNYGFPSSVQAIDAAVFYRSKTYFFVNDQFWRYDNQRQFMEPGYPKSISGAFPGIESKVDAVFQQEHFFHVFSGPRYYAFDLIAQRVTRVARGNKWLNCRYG
# protocol.notes: inhibition of recombinant neutrophil collagenase (Table 2)
# measurement.parameters: read-out: NC inhibitory activity
parameter.measured: Ki

compound: C[C@H](NC(=O)[C@H](Cc1c[nH]c2ccccc12)NC(=O)[C@@H](CCC(=O)O)NC(=O)OC(C)(C)C)c1ccccc1
Ki: > 10 µM
//
compound: C[C@H](NC(=O)[C@H](Cc1c[nH]c2ccccc12)NC(=O)[C@@H](CC(=O)O)NC(=O)OC(C)(C)C)c1ccccc1
Ki: > 10 µM
//
compound: CC(C)CC(CC(=O)NO)C(=O)N[C@@H](Cc1c[nH]c2ccccc12)C(=O)NC1CCCCC1 (stereo partly shown) [Compound 28A]
Ki: 0.001 µM

Lookup result for C[C@H](NC(=O)[C@H](Cc1c[nH]c2ccccc12)NC(=O)[C@@H](CCC(=O)NO)NC(=O)OC(C)(C)C)c1ccccc1 ; measured Ki: > 10 µM

Reference source for all entries: patent US5773438A
